tested on: IGROV1 ovarian; experiment: NCI tumour cell line growth inhibition, 48 h
REPORTED ENDPOINT: TGI

Give TGI (IGROV1 ovarian) of the following molecule: COC(=O)c1cc(Br)c(Br)n1C > 100 µM

Please answer likewise for CC1(C)C2CC(O)C1(C)CC2=O (stereo not given) > 100 µM

Please answer likewise for Cc1cc(C)nc(NS(=O)(=O)c2ccc(Nc3c4ccccc4nc4c(C(=O)Nc5ccc(S(=O)(=O)Nc6cc(C)on6)cc5)cccc34)cc2)n1 77.1 µM

Please answer likewise for Cc1ccc2c(c1)C(=O)C1(C2)Cc2c(C)cccc2C1=O (stereo not given) > 100 µM

Please answer likewise for COC(=O)C1=CC2C(=O)c3ccccc3C1(c1ccccc1)N2C1CCCCC1 (stereo not given) > 100 µM

Please answer likewise for COc1cccc(Nc2nc(C)c([N+](=O)[O-])c(Nc3cccc(OC)c3)n2)c1 > 100 µM

Please answer likewise for Cc1[nH]c(=O)[nH]c(=O)c1/C=C/C(=O)NC(CO)CC(C)C (stereo not given) > 375 µM

Please answer likewise for Clc1nc(Cl)c2ncn(Cc3cccc(COc4cccc(OCc5cccc(Cn6cnc7c(Cl)nc(Cl)nc76)c5)c4)c3)c2n1 > 100 µM

Please answer likewise for C=C(C)C1CC=C(C)C(=O)C1 (stereo not given) > 100 µM

Please answer likewise for C1C2CC3CC1CC(c1nn4c(C56CC7CC(CC(C7)C5)C6)nnc4s1)(C2)C3 > 100 µM

Where do the numbers come from? From PubChem BioAssay (NCI).
